Each item that follows carries a reported pIC50.
experimental_target: CDK2 enzyme, complexed with cyclin A (Homo sapiens)
assay_info: CDK2 cyclin dependent kinase assay, phosphorylation of synthetic peptide […] (33P-ATP filtration)
Type: biochemical
condition_description: Table 2; 0.1 mM ATP
pIC50: −log10 of the molar value.

| compound | sign | pIC50 |
| --- | --- | --- |
| CCN(CC)c1cc(Nc2ccc(S(C)(=O)=O)cc2)n2ncnc2n1 [Example 65] | = | 6.03 |
| CCN(CC)c1cc(Nc2ccccc2)n2ncnc2n1 [Example 82] | = | 5.33 |
| CS(=O)(=O)c1ccc(Nc2cc(NCC34CC5CC(CC(C5)C3)C4)nc3ncnn23)cc1 [Example 99] | = | 4.59 |
| NS(=O)(=O)c1ccc(CNc2cc(OCC3CCCCC3)nc3ncnn23)cc1 [Example 57] | = | 4.73 |
| CC(C)N(CCO)c1cc(Nc2ccc(S(C)(=O)=O)cc2)n2ncnc2n1 [Example 87] | = | 5.83 |
| CCN(CC)c1cc(Nc2ccc(S(=O)(=O)N(C)C)cc2)n2ncnc2n1 [Example 71] | = | 6.23 |
| CC[C@H](CO)Nc1cc(NCc2ccccc2)n2ncnc2n1 [Example 79] | = | 5.30 |
| CS(=O)(=O)c1ccc(Nc2cc(N3CCC(C(N)=O)CC3)nc3ncnn23)cc1 [Example 89] | = | 4.44 |
| C[Si](C)(C)CCOCn1ncc2ccc(Nc3cc(Cl)nc4ncnn34)cc21 [Example 61] | < | 3.70 |
| CN(C)CCN(C)c1cc(Nc2ccc(S(C)(=O)=O)cc2)n2ncnc2n1 [Example 73] | = | 4.65 |
| CS(=O)(=O)c1ccc(Nc2cc(NC3CC3)nc3ncnn23)cc1 [Example 101] | = | 4.82 |
| Oc1ccccc1-c1cc(Nc2ccc3cn[nH]c3c2)n2ncnc2n1 [Example 60] | = | 5.72 |
| NS(=O)(=O)c1ccc(Nc2cc(NCC3CCCCC3)nc3ncnn23)cc1 [Example 59] | = | 5.41 |
| CS(=O)(=O)c1ccc(CNc2cc(Cl)nc3ncnn23)cc1 [Example 95] | = | 4.12 |
| CS(=O)(=O)c1ccc(Nc2cc(NC3C4CC5CC(C4)CC3C5)nc3ncnn23)cc1 (stereo not shown) [Example 102] | = | 4.96 |
| Clc1cc(Nc2ccccc2)n2ncnc2n1 [Example 75] | = | 4.20 |
| NS(=O)(=O)c1ccc(Nc2cc(N3CCCC(O)C3)nc3ncnn23)cc1 (stereo not shown) [Example 67] | = | 5.64 |
| O=S(=O)(c1ccccc1)c1ccc(Nc2cc(Cl)nc3ncnn23)cc1 [Example 88] | = | 5.22 |
| CCN(CC)c1cc(Nc2ccc(C(N)=O)cc2)n2ncnc2n1 [Example 92] | = | 5.83 |

---

Each item that follows carries a reported pIC50.
experimental_target: PDK1 enzyme (Homo sapiens)
Sequence (O15530 whole entry): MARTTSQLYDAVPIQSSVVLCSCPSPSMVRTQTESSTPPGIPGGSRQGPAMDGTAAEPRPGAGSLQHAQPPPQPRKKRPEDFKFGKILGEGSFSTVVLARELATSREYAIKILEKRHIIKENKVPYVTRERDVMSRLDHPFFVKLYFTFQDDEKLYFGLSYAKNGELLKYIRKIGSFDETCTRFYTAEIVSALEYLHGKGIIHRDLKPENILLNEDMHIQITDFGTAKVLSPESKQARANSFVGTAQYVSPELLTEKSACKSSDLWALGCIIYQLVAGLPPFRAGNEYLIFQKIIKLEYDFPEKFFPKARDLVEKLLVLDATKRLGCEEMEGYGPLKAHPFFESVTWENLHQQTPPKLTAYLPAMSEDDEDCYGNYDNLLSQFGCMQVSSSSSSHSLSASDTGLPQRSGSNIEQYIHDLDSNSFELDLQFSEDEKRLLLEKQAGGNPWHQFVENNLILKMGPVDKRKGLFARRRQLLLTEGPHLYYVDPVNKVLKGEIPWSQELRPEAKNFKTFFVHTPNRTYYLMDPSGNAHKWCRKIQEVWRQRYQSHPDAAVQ
assay_info: PDK1 3'-phosphoinositide-dependent kinase assay, phosphorylation of synthetic peptide (33P-ATP filtration)
Format: biochemical
condition_description: Table 2; 0.01 mM ATP; read-out: PDK1 IC50
pIC50: −log10 of the molar value.
property: pIC50

| compound | experimental_target | recorded_measurement |
| --- | --- | --- |
| NS(=O)(=O)c1ccc(CNc2cc(OCC3CCCCC3)nc3ncnn23)cc1 [Example 57] | PDK1 enzyme (Homo sapiens) | < 3.70 |
| CN(C)S(=O)(=O)c1ccc(Nc2cc(N[C@H]3CC[C@H](N)CC3)nc3ncnn23)cc1 [Example 83] | PDK1 enzyme (Homo sapiens) | 4.36 |
| CS(=O)(=O)c1ccc(Nc2cc(N3CCC(C(N)=O)CC3)nc3ncnn23)cc1 [Example 89] | PDK1 enzyme (Homo sapiens) | < 3.70 |
| CC(C)(C)OC(=O)N1CCC(CNc2cc(Cl)nc3ncnn23)CC1 [Example 76] | PDK1 enzyme (Homo sapiens) | < 3.70 |
